Every entry's value here was drawn from PubChem BioAssay AID540271.

Test system: S. cerevisiae expressing PfHSP40, growth rescue, plate reader
Assay: Yeast growth rescue from Plasmodium falciparum HSP40 toxicity, dose response confirmatory, plate reader (AID 540271);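 note: yeast growth read after three days of incubation at 30 °C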
Active and inactive are the calls of the source. The rule behind the calls is not given here.
Assignment: determine reported AC50 for the given compounds.

Give its AC50 value. Item: `O=C1c2ccccc2-n2c1nc1ccccc1c2=O` 1.83 µM

Need AC50 of `CCCOc1ccc(S(=O)(=O)n2cc(F)c(=O)[nH]c2=O)cc1` , thanks. 3.66 µM

I am curious: what AC50 value has been reported for `CCCCCCCCCCCCCC(=O)NO` ? 0.727 µM

Item `Cc1ccccc1CN(C)CCS(=O)(=O)c1cc(Cl)ccc1Cl` has what recorded AC50? > 12 µM (inactive)

Field request: AC50 | item: `Cc1cc(NS(=O)(=O)c2ccc(C3CCCCC3)cc2)no1` 5.38 µM

AC50 for `COc1cnc(-c2ccccn2)nc1Sc1ccccc1` ? 6.99 µM

If you can, please state the reported AC50 value of `O=c1cc(CSc2ccc(Cl)cc2)nc(-c2ccccn2)[nH]1` . 4.13 µM

Need AC50 of `C[C@@]12C(=O)Nc3ccc(F)cc3C(=O)N1[C@H]1c3ccccc3OC[C@@H]1[C@@H]2c1ccccc1` , thanks. 8.46 µM

Fill blank: measured AC50 of the compound `N#Cc1c(-c2ccc(Cl)cc2)n(O)c2ccccc12` is ____. 2.67 µM

I have this compound here, `COc1ccc(S(=O)(=O)N(C(=O)c2ccncc2)c2ccc(OC(=O)c3ccncc3)cc2)cc1` , and I need its recorded AC50. 4.46 µM

Suppose we examine the compound Cc1cccc2sc(NNC(=O)c3ccc(S(=O)(=O)N4CCCC(C)C4)cc3)nc12 (stereo unspecified) ; what AC50 value has been reported? 2.81 µM

###

System: S. cerevisiae expressing PfHSP40, growth rescue, plate reader
Assay: Yeast growth rescue from Plasmodium falciparum HSP40 toxicity, dose response confirmatory, plate reader (AID 540271);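 note: yeast growth read after three days of incubation at 30 °C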
Calls of active or inactive are those of the source. No rule for the calls is given here.
Measurement label: AC50

Would you kindly share the measured AC50 for `CN(C)S(=O)(=O)c1cccc(NC(=S)NNC(=O)c2cc3ccccc3cc2O)c1` ? 2.86 µM

# input compound: CCOC(=O)c1ccc(NC(=O)CC2OCCN(CC)C2=O)cc1 (stereo unspecified) ; wanted: its AC50 4.89 µM

Give the measured AC50 of `Oc1ccccc1-c1nnc(SCCN2CCOCC2)n1Cc1ccccc1` . 5.94 µM

Look at this compound and give its reported AC50. `C=CCN(CC=C)C(=S)NC(=O)c1ccc(C)c(Br)c1` 6.72 µM

For `O=C(O/N=C(\c1ccccc1)c1ccncc1)c1ccccc1Cl` , what is its reported AC50? > 12 µM (inactive)

Give its AC50 value. Item: Cc1cccc(N2CCN(C(=O)C3COc4ccccc4O3)CC2)c1C (stereo unspecified) 6.72 µM

Fill in: AC50 of O=C(C1CCN(C2CC(=O)N(c3cccc(Cl)c3)C2=O)CC1)N1CCCC1 (stereo unspecified) is ___ 6.02 µM

Any idea what AC50 was measured for CCOC(=O)c1ccc(N2C(=O)CC(N3CCC(O)(c4ccc(Cl)cc4)CC3)C2=O)cc1 (stereo unspecified) ? 6.57 µM

Form field: reported AC50 of CC1Oc2ccccc2C=C1/C=N/Nc1ccc(C(=O)O)cc1 (stereo unspecified) 10.1 µM

Which AC50 value belongs to `Cc1cc(C(=O)COC(=O)Cc2n[nH]c(=O)c3ccccc23)c(C)n1-c1cccc(C(F)(F)F)c1` ? 6.72 µM

Quick one: AC50 of `CC1=CC(C)(C)N(S(=O)(=O)c2ccc(C)cc2)c2ccc(C)cc21` ? 7.54 µM

###

Test system: S. cerevisiae expressing PfHSP40, growth rescue, plate reader
Test: Yeast growth rescue from Plasmodium falciparum HSP40 toxicity, dose response confirmatory, plate reader (AID 540271);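 note: yeast growth read after three days of incubation at 30 °C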
Calls of active or inactive are those of the source. How the calls were made is not given here.
One label from this list, please: TRUE (active), FALSE (inactive)

Which outcome was assigned to `CC(C)(CN1CCc2ccccc2C1)NS(=O)(=O)c1ccc(Cl)cc1` in this test? TRUE

Status in this test for `CCN1/C(=C/c2sc(-c3ccccc3C)c[n+]2C)Sc2ccccc21` ? TRUE

Which outcome was assigned to `COc1ccc2cnn(CCOc3cc(C)ccc3C(C)C)c(=O)c2c1OC` in this test? TRUE

Just curious, what result did `CCCn1c(=O)c(C(=O)NCc2ccc(OC)c(OC)c2)c(O)c2ccccc21` get here? TRUE

What did this assay record as the result for `C=CCNC(=S)N1CCC(Cc2ccccc2)CC1` ? TRUE

Test call, this compound: O=C(CC1(O)C(=O)Nc2cc(Cl)cc(Cl)c21)c1ccncc1 (stereo unspecified) FALSE

Call for entry CCC(C)Sc1cccc(-c2nc3ccccn3c2NCc2ccccc2)c1 (stereo unspecified) : TRUE

Kindly provide the recorded test outcome for the following compound: `N/C(Cc1ccc(Cl)cc1Cl)=N\OC(=O)c1ccccc1F` TRUE

# outcome recorded in this test, key = CC(NC(=S)NC1CCC(C(C)(C)C)CC1)c1ccccc1 (stereo unspecified) TRUE

Test call, this compound: CC1(C)C2CCC1(C)C(OC(=O)c1ccc(O)cc1)C2 (stereo unspecified) TRUE

Which outcome did this test record for the compound `Cc1ccc(NC2(c3nnnn3-c3c(C)cccc3C)CCCCC2)cc1` ? TRUE

###

System: S. cerevisiae expressing PfHSP40, growth rescue, plate reader
Assay: Yeast growth rescue from Plasmodium falciparum HSP40 toxicity, dose response confirmatory, plate reader (AID 540271);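 note: yeast growth read after three days of incubation at 30 °C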
Measurement label: AC50

AC50 for `COc1ccc(-c2csc(NC(=O)c3ccccc3F)c2C(=O)O)cc1` ? 3.69 µM

What does the record list as AC50 for `CCCCC(=O)NC(=S)NNC(=O)CCc1ccccc1` ? 5.21 µM

What does the record list as AC50 for `Cn1nnnc1N=N/C(=N/Nc1ccccc1)c1ccccc1` ? 1.85 µM

May I ask what AC50 has been recorded for `O=C(Nc1ccccc1N1CCOCC1)c1cc2c(s1)CCCCC2` ? 6.04 µM

What value of AC50 has been recorded for this entry: `CC(C)(C)n1nc(-c2ccc(Cl)cc2)c2c(N)ncnc21` 1.56 µM

Fill in: AC50 of `COc1ccc(N=N/C(=C\O)C(=O)c2cccs2)cc1` is ___ 7.25 µM

// AC50 lookup, key: `CCc1ccc([C@@H]2CC=C(C(=O)O)[C@H](c3ccc(Cl)cc3)N2S(=O)(=O)c2ccc(C)cc2)cc1` 5.39 µM

Reported AC50 for `O=C(Nc1nnc(-c2ccccc2)o1)c1ccc(Cl)cc1` : what is it? 1.84 µM

Which AC50 value belongs to `Cc1ccccc1C(=O)NNC(=S)NC(=O)c1ccc(Cl)cc1Cl` ? 2.36 µM

Name the recorded AC50 for `Clc1cccc(CON/C=N/c2ncnc3sccc23)c1` . 3.74 µM

Using the record for `COc1cccc(/C=N/Nc2ncc(C(F)(F)F)cc2Cl)c1O` , report its AC50. 1.49 µM

For the compound `Cc1csc(NC(=S)Nc2cccc(Cl)c2)n1` , what AC50 is on record? 11.2 µM

// lookup AC50 for `CCCCc1ccc(-n2c(Cc3cccs3)n[nH]c2=S)cc1` 6.45 µM

Item under review: `S=C(NCc1ccco1)Nc1ccc(Oc2ccc(Cl)cc2)cc1` . Reported AC50? 7.02 µM

Entry O=C(c1ccccc1)N1C(=O)C(c2ccccc2)Oc2ccccc21 (centres undefined) has what AC50? 0.937 µM

If you can, please state the reported AC50 value of `CCOC(=O)c1cnc(-n2nc(C)cc2C)nc1NC1CCCC1` . 7.65 µM

Quick one: AC50 of `CC(C)NC(=O)NC(=O)COC(=O)c1ccc([N+](=O)[O-])cc1Cl` ? 12 µM

Please report the recorded AC50 for `CCCSC(=S)c1c(C)[nH]n(-c2ccccc2)c1=O` . 5.46 µM

Request the reported AC50 associated with `Cc1cc(/C=C2\SC(=S)N(C)C2=O)c(C)n1-c1ccc(O)cc1` 3.33 µM

Give the measured AC50 of `CN(c1ccccc1)c1nc(N2CCCC2)nc(-n2ccnc2)n1` . 1.04 µM

Query (compound): `CCOC(=O)N1C(=O)C2(CCCCC2)N(c2ccccc2Cl)C1=S` ; field requested: AC50 0.084 µM

Would you mind telling me what AC50 value was observed for `CCOC(=O)C1=C(Cc2ccc(OC)cc2)C(=O)c2ccccc2C1=O` ? 5.4 µM

Record request: AC50 value, item C=CCOC(Cn1ccnc1)c1ccc(Cl)cc1Cl (centres undefined) 1.89 µM

Look up AC50: `c1ccc(C(=NNc2nc3ccccc3s2)c2ccccn2)cc1` 2.52 µM

###

Test system: S. cerevisiae expressing PfHSP40, growth rescue, plate reader
Assay: Yeast growth rescue from Plasmodium falciparum HSP40 toxicity, dose response confirmatory, plate reader (AID 540271);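 note: yeast growth read after three days of incubation at 30 °C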
Measurement label: AC50

Form field: reported AC50 of Cc1ccc(C2(c3ccc(C)cc3)CC2C(=O)Nc2ccc([N+](=O)[O-])cc2O)cc1 (stereo not given) 5.44 µM

Entry `CCc1cc(SC#N)cc(C)c1NC(=O)CCl` : reported AC50 = ? 4.4 µM

Could you tell me which AC50 is on file for `Cc1nc(SCc2ccc(OCCC(C)C)cc2)n[nH]1` ? 3.08 µM

# query: AC50 of entry `CCc1ccc(S(=O)(=O)N(C(=O)c2ccncc2)c2ccc(OC(=O)c3ccncc3)cc2)cc1` 3.01 µM

Please look up its AC50: `CCOC(=O)N1CCN(S(=O)(=O)c2ccc(C(=O)NNc3nc4ccc(Cl)cc4s3)cc2)CC1` 5.51 µM

Which AC50 value belongs to `O=C(N/N=C/c1c(O)n(Cc2ccccc2)c(=O)c2ccccc12)c1cccnc1` ? 6.92 µM

So what does the record say about AC50 for `CC1(C)C=Cc2c(ccc3c2OC[C@@H](c2ccc(O)cc2O)C3)O1` ? 5.69 µM

Can you share its AC50? I mean this molecule: `COc1ccc(OC)c(-c2c3cc(O)c(=O)cc-3oc3cc(O)c(O)cc23)c1` 3.79 µM

What value of AC50 has been reported for the following molecule? `O=S(=O)(CCSc1ccccn1)c1nc2ccccc2s1` 7.49 µM

Any idea what AC50 was measured for Clc1ccc(C(Cn2ccnc2)OCc2c(Cl)cccc2Cl)c(Cl)c1 (stereo not given) ? 0.241 µM
